The entries below are paired with their reported TGI.
tested on: K-562 leukemia; test: NCI tumour cell line growth inhibition, 48 h

query: Checklist item: TGI tested on K-562 leukemia, entry COc1ccc(/C=C/c2cnnc3ccccc23)cc1OC , value?
result: > 10 µM

query: Checklist item: TGI tested on K-562 leukemia, entry O=C(O)Cc1ccc(-n2nnc3c(=O)[nH][nH]c(=O)c32)cc1 , value?
result: > 100 µM

query: Checklist item: TGI tested on K-562 leukemia, entry COc1cc(C2C(C(=O)Nc3ccccc3C)=C(C)NC(C)=C2C(=O)Nc2ccccc2C)ccc1O , value?
result: > 100 µM

query: Checklist item: TGI tested on K-562 leukemia, entry CC1(C)C/C=C\CCC(O)C(O)CCC(C)(C)C1=O (configuration not stated) , value?
result: > 100 µM

query: Checklist item: TGI tested on K-562 leukemia, entry C=C1[C@@H]2CCC(C)(C)[C@H]1CCC(=O)[C@@H]2C(=O)OC , value?
result: > 100 µM

Others:
query: Checklist item: TGI tested on K-562 leukemia, entry C[C@]12CC[C@H](O)CC1CCC[C@@H]2O (some centres not stated) , value?
result: > 100 µM

query: Checklist item: TGI tested on K-562 leukemia, entry Cc1cc2c(C=O)[nH]nc2c(C#N)c1C , value?
result: > 100 µM

query: Checklist item: TGI tested on K-562 leukemia, entry Fc1cccc(C2SCc3nc4ccccc4n32)c1 (configuration not stated) , value?
result: > 100 µM

query: Checklist item: TGI tested on K-562 leukemia, entry CC/C(=C(/c1ccc(Cl)cc1)c1ccc(OCCCN(C)C)cc1)c1ccc(OC)cc1 , value?
result: 2.57 µM
